# measurement_description: Clearance in human liver microsomes
# Type: ADME, Microsome
Field 'label' (enum: Satisfied / Not satisfied). Set to Satisfied when CLhep predicted is strictly under 10 mL/min/kg; else Not satisfied.

Here's an entry: Cc1c(NC(=O)c2cc(C(N)=O)nc3cc(F)ccc23)c(C(F)(F)F)nn1Cc1cnc(C#N)cn1 . Is its CLhep predicted below 10 mL/min/kg?
Satisfied

Here's an entry: Cc1c(NC(=O)c2cc(C(N)=O)nc3ccccc23)c(C(F)(F)F)nn1Cc1ccc(C#N)cc1 . Is its CLhep predicted below 10 mL/min/kg?
Satisfied

Here's an entry: Cc1c(NC(=O)c2cc(C(N)=O)nc3cc(F)ccc23)c(C(F)(F)F)nn1Cc1ccc(C#N)cc1 . Is its CLhep predicted below 10 mL/min/kg?
Satisfied

Here's an entry: Cc1c(NC(=O)c2cc(C(N)=O)nc3cc(F)ccc23)c(C(C)C)nn1Cc1ccc(C#N)cc1 . Is its CLhep predicted below 10 mL/min/kg?
Not satisfied

Here's an entry: Cc1c(NC(=O)c2cc(C(N)=O)nc3cc(F)ccc23)c(C(F)(F)F)nn1Cc1ccc(C#N)cn1 . Is its CLhep predicted below 10 mL/min/kg?
Satisfied

Here's an entry: Cc1nn(Cc2ccc(C#N)cc2)c(C)c1NC(=O)c1cc(C(N)=O)nc2cc(F)ccc12 . Is its CLhep predicted below 10 mL/min/kg?
Satisfied

Here's an entry: Cc1c(NC(=O)c2cc(C(N)=O)nc3cc(F)ccc23)c(C(F)(F)F)nn1Cc1ncc(C#N)cn1 . Is its CLhep predicted below 10 mL/min/kg?
Satisfied

Here's an entry: Cc1ccc2nc(C)cc(C(=O)Nc3c(C)nn(Cc4ccc(F)cc4)c3C)c2c1 . Is its CLhep predicted below 10 mL/min/kg?
Not satisfied

Here's an entry: CCc1ccc(Cn2nc(C(F)(F)F)c(NC(=O)c3cc(C(N)=O)nc4cc(F)ccc34)c2C)cc1 . Is its CLhep predicted below 10 mL/min/kg?
Not satisfied

---

# measurement_description: Clearance in mouse liver microsomes
# Type: ADME, Microsome
assay_readout: CLhep predicted (mL/min/kg)
Number in mL/min/kg, nothing else.

Recorded result, Cc1nn(Cc2ccc(C#N)cc2)c(C)c1NC(=O)c1cc(C(F)(F)F)nc2ccc(Br)cc12 , CLhep predicted: 56.7

Recorded result, Cc1c(NC(=O)c2cc(C(N)=O)nc3ccccc23)c(C(F)(F)F)nn1Cc1ccc(C#N)cc1 , CLhep predicted: 23.3

Recorded result, Cc1nn(Cc2ccc(F)cc2)c(C)c1NC(=O)c1cc(C(F)(F)F)nc2ccc(Br)cc12 , CLhep predicted: 75

Recorded result, Cc1ccc2nc(C(N)=O)cc(C(=O)Nc3c(C(F)(F)F)nn(Cc4ccc(C#N)cc4)c3C)c2c1 , CLhep predicted: 38.3

---

# system_under_test: Solute carrier family 2, facilitated glucose transporter member 1 (Homo sapiens, UniProt P11166)
# Sequence (P11166 whole entry): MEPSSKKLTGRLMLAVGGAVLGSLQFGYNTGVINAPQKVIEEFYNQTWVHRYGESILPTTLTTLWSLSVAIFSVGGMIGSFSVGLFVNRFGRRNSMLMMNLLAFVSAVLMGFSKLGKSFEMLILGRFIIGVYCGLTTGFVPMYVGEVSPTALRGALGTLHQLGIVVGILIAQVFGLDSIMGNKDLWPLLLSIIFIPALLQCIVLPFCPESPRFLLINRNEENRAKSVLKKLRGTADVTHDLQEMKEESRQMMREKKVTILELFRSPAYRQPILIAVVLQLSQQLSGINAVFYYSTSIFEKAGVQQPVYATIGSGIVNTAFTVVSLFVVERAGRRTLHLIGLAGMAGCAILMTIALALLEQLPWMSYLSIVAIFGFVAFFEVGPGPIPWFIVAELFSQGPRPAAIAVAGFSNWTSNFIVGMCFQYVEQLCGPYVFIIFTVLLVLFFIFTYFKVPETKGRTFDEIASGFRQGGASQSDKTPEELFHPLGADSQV
# measurement_description: Inhibition of human GLUT1 expressed in human DLD-1 cells assessed as reduction in glucose uptake by measuring decrease in ATP production incubated for 15 mins in presence of oxidative phosphorylation inhibitor rotenone by CellTiter-Glo Luminescent Cell Viability Assay
# Format: cell-based
param class (str): category from IC50; see ranges low range: < 5 nM; mid range: ≥ 5 nM and < 20 nM; high range: ≥ 20 nM

Lab note: sort Cc1cccc2nc(C(N)=O)cc(C(=O)Nc3c(C(F)(F)F)nn(Cc4ccc(C#N)cc4)c3C)c12 into the matching IC50 band.
mid range

Lab note: sort Cc1cccc(Cn2nc(C(F)(F)F)c(NC(=O)c3cc(C(N)=O)nc4cc(F)ccc34)c2C)c1 into the matching IC50 band.
mid range

Lab note: sort Cc1c(NC(=O)c2cc(C(N)=O)nc3cc(F)c(F)cc23)c(C(F)(F)F)nn1Cc1ccc(C#N)cc1 into the matching IC50 band.
low range

Lab note: sort Cc1c(NC(=O)c2cc(C(N)=O)nc3cc(F)cc(F)c23)c(C(F)(F)F)nn1Cc1ccc(C#N)cc1 into the matching IC50 band.
low range

Lab note: sort Cc1c(NC(=O)c2cc(C(N)=O)nc3ccccc23)c(C(F)(F)F)nn1Cc1ccc(C#N)cc1 into the matching IC50 band.
mid range

Lab note: sort Cc1c(NC(=O)c2cc(C(N)=O)nc3cc(F)ccc23)c(C(F)(F)F)nn1Cc1ccc(C(F)(F)F)cc1 into the matching IC50 band.
mid range

Lab note: sort Cc1c(NC(=O)c2ccnc(C(N)=O)c2)c(C(F)(F)F)nn1Cc1ccc(C#N)cc1 into the matching IC50 band.
high range

Lab note: sort Cc1c(NC(=O)c2cc(C(N)=O)nc3ncccc23)c(C(F)(F)F)nn1Cc1ccc(C#N)cc1 into the matching IC50 band.
high range

Lab note: sort Cc1c(NC(=O)c2cc(C(N)=O)nc3cc(F)ccc23)c(C(F)(F)F)nn1Cc1ccccc1C#N into the matching IC50 band.
low range

Lab note: sort Cc1c(NC(=O)c2cc(C(N)=O)nc3scnc23)c(C(F)(F)F)nn1Cc1ccc(C#N)cc1 into the matching IC50 band.
high range

Lab note: sort Cc1c(NC(=O)c2cc(-c3ccc(F)cc3)nc3ccccc23)c(C(F)(F)F)nn1Cc1ccc(C#N)cc1 into the matching IC50 band.
high range

Lab note: sort Cc1c(NC(=O)c2cc(-c3cccnc3)nc3ccccc23)c(C(F)(F)F)nn1Cc1ccc(C#N)cc1 into the matching IC50 band.
high range

Lab note: sort Cc1c(NC(=O)c2cc(C(N)=O)nc3cccc(F)c23)c(C(F)(F)F)nn1Cc1ccc(C#N)cc1 into the matching IC50 band.
low range

Lab note: sort Cc1c(NC(=O)c2cc(C(N)=O)nc3cnccc23)c(C(F)(F)F)nn1Cc1ccc(C#N)cc1 into the matching IC50 band.
mid range

Lab note: sort Cc1c(NC(=O)c2cc(C(N)=O)nc3cc(F)ccc23)c(C(F)(F)F)nn1Cc1ncc(C#N)cn1 into the matching IC50 band.
high range

Lab note: sort Cc1c(NC(=O)c2cc(C(N)=O)nc3cc(F)ccc23)c(C(C)C)nn1Cc1ccc(C#N)cc1 into the matching IC50 band.
mid range

---

# system_under_test: UniProt:P11166
# Sequence (P11166 whole entry): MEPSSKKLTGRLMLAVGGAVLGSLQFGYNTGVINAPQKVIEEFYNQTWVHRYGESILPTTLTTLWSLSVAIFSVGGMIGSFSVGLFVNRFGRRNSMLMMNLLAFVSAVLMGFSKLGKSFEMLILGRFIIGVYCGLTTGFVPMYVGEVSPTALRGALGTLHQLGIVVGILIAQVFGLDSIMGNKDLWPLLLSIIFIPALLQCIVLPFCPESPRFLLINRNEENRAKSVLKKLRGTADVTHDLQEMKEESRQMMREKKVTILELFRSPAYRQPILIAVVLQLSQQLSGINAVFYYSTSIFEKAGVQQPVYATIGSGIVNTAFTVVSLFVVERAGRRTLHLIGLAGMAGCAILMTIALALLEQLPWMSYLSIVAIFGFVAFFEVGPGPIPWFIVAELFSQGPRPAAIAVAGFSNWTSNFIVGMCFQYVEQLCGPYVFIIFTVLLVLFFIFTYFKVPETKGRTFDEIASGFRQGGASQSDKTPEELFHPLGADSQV
# measurement_description: Inhibition of human GLUT1 expressed in human DLD-1 cells assessed as reduction in glucose uptake by measuring decrease in ATP production incubated for 15 mins in presence of oxidative phosphorylation inhibitor rotenone by CellTiter-Glo Luminescent Cell Viability Assay
assay_readout: pIC50
Keep it numeric: pIC50 is minus log10 of the concentration in mol/L.

Param item: Cc1c(NC(=O)c2cc(C(N)=O)nc3cc(F)ccc23)c(C(F)(F)F)nn1Cc1cnc(C#N)cn1 ; param system: UniProt:P11166; output pIC50: 8.30

Param item: Cc1c(NC(=O)c2cc(C(N)=O)nc3ccc(F)cc23)c(C(F)(F)F)nn1Cc1ccc(C#N)cc1 ; param system: UniProt:P11166; output pIC50: 8.30

Param item: Cc1c(NC(=O)c2cc(C(N)=O)nc3cc(F)ccc23)c(C(F)(F)F)nn1Cc1ccc(OC(F)(F)F)cc1 ; param system: UniProt:P11166; output pIC50: 8.30

Cited source: ChEMBL document CHEMBL5653626
